Each recorded value in this set is attributed to patent US20240254089A1.

Form field: IC50 (one value per entry).
# measured-target: human MRGPR X4 (Homo sapiens)
# Construct: expressed in transfected cells
# protocol-description: MRGPR X4 antagonist activity, IP-One Gq HTRF assay in stably transfected HEK cells
# Assay type: cell-based
measured-parameter: IC50

# smiles-code, measured-target, recorded-measurement
measured = [
    ("Cc1ccc(Cn2nc(C(=O)NCCc3nc4c(s3)CCCC4)c3cc(Cl)ccc32)cc1", "human MRGPR X4 (Homo sapiens)", "1000 to 2500 nM"),
    ("O=C(NCc1cccnc1N1CCOCC1)c1nn(Cc2ccc(Cl)cc2)c2ccccc12", "human MRGPR X4 (Homo sapiens)", "> 2500 nM"),
    ("Cn1cc(C(=O)Cn2nc(C(=O)NCCc3nnc4ccccn34)c3ccccc32)cn1", "human MRGPR X4 (Homo sapiens)", "100 to 500 nM"),
    ("Cc1ccc(Cn2nc(C(=O)NCCc3nnc4n3CCC4)c3ccccc32)cc1", "human MRGPR X4 (Homo sapiens)", "100 to 500 nM"),
    ("Cc1ccc(Cn2cc(C(=O)NCCc3ccc(Cl)c(F)c3)c3ccccc32)cc1", "human MRGPR X4 (Homo sapiens)", "501 to 1000 nM"),
    ("COc1cccc(F)c1CNC(=O)c1nn(Cc2ccc(Cl)cc2)c2ccccc12", "human MRGPR X4 (Homo sapiens)", "> 2500 nM"),
    ("Cn1ccc(CNC(=O)c2nn(Cc3ccc(Cl)cc3)c3ccccc23)n1", "human MRGPR X4 (Homo sapiens)", "> 2500 nM"),
    ("O=C(NCCc1nc2c(s1)CCCC2)c1nn(Cc2ccc(Cl)c(Cl)c2)c2ccccc12", "human MRGPR X4 (Homo sapiens)", "100 to 500 nM"),
]

###

Form field: pIC50 (one value per entry).
# measured-target: human MRGPR X4 (Homo sapiens)
# Construct: expressed in transfected cells
# protocol-description: MRGPR X4 antagonist activity, IP-One Gq HTRF assay in stably transfected HEK cells
# Type: cell-based
pIC50: −log10 of the molar value.

# compound, pIC50
measured = [
    ("O=C(NCCOc1cccnc1)c1nn(Cc2ccc(Cl)cc2)c2ccccc12 [Compound 336]", "6.30 to 7.00"),
    ("Cc1ccc(Cn2nc(C(=O)NCCc3nc4c(s3)CCCC4)c3c(F)cccc32)cc1 [Compound 69]", "6.30 to 7.00"),
    ("O=C(NCc1ccnc2ccccc12)c1nn(Cc2ccc(Cl)cc2)c2ccccc12 [Compound 371]", "< 5.60"),
    ("Cc1ccc(Cn2cc(C(=O)NCCc3cn4c(n3)SCC4)c3ccccc32)cc1 [Compound 181]", "6.30 to 7.00"),
    ("CCc1ccc(Cn2nc(C(=O)NCCc3nnc4ccccn34)c3ccccc32)cc1 [Compound 447]", "6.30 to 7.00"),
    ("O=C(NCCc1nnc2ccccn12)c1nn(Cc2ccc(Cl)c(Cl)c2)c2ccccc12 [Compound 526]", "> 7.00"),
    ("O=C(NCc1cnn2ccccc12)c1nn(Cc2ccc(Cl)cc2)c2ccccc12 [Compound 388]", "< 5.60"),
    ("Cc1ccc(Cn2nc(C(=O)NCCc3noc(C4CC4)n3)c3ccccc32)cc1 [Compound 83]", "6.00 to 6.30"),
    ("Cc1ccc(CCNC(=O)c2cn(Cc3cccc(F)c3)c3ccccc23)cn1 [Compound 202]", "5.60 to 6.00"),
    ("CC(C)(C)c1ccc(Cn2nc(C(=O)NCCc3nnc4n3CCCCC4)c3ccccc32)cc1 [Compound 50]", "6.30 to 7.00"),
    ("O=C(NCCC(=O)N1CCCC1)c1nn(Cc2ccc(Cl)cc2)c2ccccc12 [Compound 403]", "6.30 to 7.00"),
    ("Cc1ncccc1CCNC(=O)c1cn(Cc2cccc(F)c2)c2ccccc12 [Compound 212]", "5.60 to 6.00"),
    ("Cc1c(C(=O)NCCc2cccnc2)c2ccccc2n1Cc1ccc(Cl)cc1 [Compound 227]", "< 5.60"),
    ("O=C(NCc1ccc(-n2cccn2)cc1)c1nn(Cc2ccc(Cl)cc2)c2ccccc12 [Compound 359]", "< 5.60"),
    ("O=C(NCCc1nnc2n1CCCCC2)c1nn(Cc2ccc(C(F)(F)F)cc2)c2ccccc12 [Compound 5]", "> 7.00"),
    ("N#Cc1ccccc1Cn1cc(C(=O)NCCc2ccc(Cl)c(F)c2)c2ccccc21 [Compound 235]", "< 5.60"),
    ("Cc1ccc(Cn2nc(C(=O)NCCc3c[nH]nn3)c3ccccc32)cc1 [Compound 73]", "6.00 to 6.30"),
]

###

# measured-target: human MRGPR X4 (Homo sapiens, UniProt Q96LA9)
# Construct: expressed in transfected cells
# Sequence (Q96LA9 whole entry): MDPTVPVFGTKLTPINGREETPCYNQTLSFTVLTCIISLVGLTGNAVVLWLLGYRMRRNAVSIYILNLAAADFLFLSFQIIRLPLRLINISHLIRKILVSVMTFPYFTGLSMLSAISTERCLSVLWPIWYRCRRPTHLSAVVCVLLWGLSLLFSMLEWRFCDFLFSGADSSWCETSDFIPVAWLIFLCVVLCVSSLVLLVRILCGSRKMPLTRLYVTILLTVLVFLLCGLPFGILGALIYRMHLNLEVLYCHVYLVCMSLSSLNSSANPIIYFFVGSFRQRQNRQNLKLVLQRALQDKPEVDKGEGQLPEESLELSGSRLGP
# protocol-description: MRGPR X4 antagonist activity, IP-One Gq HTRF assay in stably transfected HEK cells
# Assay type: cell-based
# condition-set: versus 20 μM deoxycholic acid agonist; HEK cells expressing human MRGPR X4; read-out: MRGPRX4 Antagonist Activity
pIC50: −log10 of the molar value.
Form field: pIC50 (one value per entry).
measured-parameter: pIC50

# compound, recorded-measurement
measured = [
    ("Cc1c(Cl)cccc1S(=O)(=O)NC(=O)c1nn(Cc2cccc(F)c2)c2ccccc12 [Compound 307]", "< 5.60"),
    ("O=C(NCCC(=O)N1CCOCC1)c1nn(Cc2ccc(Cl)cc2)c2ccccc12 [Compound 401]", "6.00 to 6.30"),
    ("O=C(NCCOCc1ccccc1)c1nn(Cc2ccc(Cl)cc2)c2ccccc12 [Compound 337]", "< 5.60"),
    ("O=C(CS(=O)(=O)c1cn(Cc2ccc(Cl)cc2)c2ccccc12)Nc1ccccn1 [Compound 241]", "6.30 to 7.00"),
]

###

Form field: IC50 (one value per entry).
# measured-target: human MRGPR X4 (Homo sapiens, UniProt Q96LA9)
# Construct: expressed in transfected cells
# protocol-description: MRGPR X4 antagonist activity, IP-One Gq HTRF assay in stably transfected HEK cells
# Format: cell-based
measured-parameter: IC50

# smiles-code, recorded-measurement
records = [
    ("CC(=O)c1ccc(Cn2nc(C(=O)NCCc3nnc4ccccn34)c3ccccc32)cc1", "0.1 to 0.5 µM"),
    ("O=C(NS(=O)(=O)c1ccc(F)cc1)c1nn(Cc2ccc(OC(F)F)cc2)c2ccccc12", "0.501 to 1 µM"),
    ("N#Cc1ccc(Cn2nc(C(=O)NCCc3cccnc3)c3ccccc32)cc1", "0.501 to 1 µM"),
    ("O=C(NCCc1nnc2ccccn12)c1nn(Cc2nc(C(F)(F)F)no2)c2ccccc12", "> 2.5 µM"),
    ("O=C(NCCc1nnc2ccccn12)c1nn(CC(=O)C2CCCCC2)c2ccccc12", "1 to 2.5 µM"),
    ("CC(C)c1ccc(Cn2nc(C(=O)NCCc3ccccn3)c3ccccc32)cc1", "0.501 to 1 µM"),
    ("Cc1cccc(S(=O)(=O)NC(=O)c2nn(Cc3ccc(OC(F)F)cc3)c3ccccc23)c1", "1 to 2.5 µM"),
    ("O=C(NCCN1CCCc2ccccc21)c1nn(Cc2ccc(Cl)cc2)c2ccccc12", "0.501 to 1 µM"),
]

###

Form field: IC50 (one value per entry).
# measured-target: human MRGPR X4 (Homo sapiens)
# Construct: expressed in transfected cells
# protocol-description: MRGPR X4 antagonist activity, IP-One Gq HTRF assay in stably transfected HEK cells
# Assay type: cell-based

# smiles-code, measured-target, IC50
rows = [
    ("N#Cc1ccc(Cn2nc(C(=O)NCCc3nnc4ccccn34)c3ccccc32)s1", "human MRGPR X4 (Homo sapiens)", "100 to 500 nM"),
    ("O=C(NCCc1cccs1)c1nn(Cc2ccc(Cl)cc2)c2ccccc12", "human MRGPR X4 (Homo sapiens)", "1000 to 2500 nM"),
    ("O=C(O)c1nn(Cc2ccc(Cl)c(Cl)c2)c2ccccc12", "human MRGPR X4 (Homo sapiens)", "1000 to 2500 nM"),
    ("O=C(NCCc1nnc2ccccn12)c1nn(Cc2ccc(Cl)cc2)c2ccc(Br)cc12", "human MRGPR X4 (Homo sapiens)", "< 100 nM"),
    ("Cc1cc(Cn2nc(C(=O)NCCc3cccnc3)c3ccccc32)ccc1Cl", "human MRGPR X4 (Homo sapiens)", "100 to 500 nM"),
    ("O=C(NCCc1nnc2ccccn12)c1nn(Cc2nccc3ccccc23)c2ccccc12", "human MRGPR X4 (Homo sapiens)", "1000 to 2500 nM"),
    ("COc1ccc2c(C(=O)NCCc3nnc4ccccn34)nn(Cc3ccc(Cl)cc3)c2c1", "human MRGPR X4 (Homo sapiens)", "< 100 nM"),
    ("O=C(NCCc1nnc2ccccn12)c1nn(Cc2ccc(Cl)cc2)c2cccc(Br)c12", "human MRGPR X4 (Homo sapiens)", "100 to 500 nM"),
]
